Tested on: Escherichia coli IAI1
assay overview: fold change of Putrescine concentration vs plate DMSO controls (fold change (ratio)); higher = more amine produced, active = hit call of the paper (significant change in both replicates, either direction)
experimental parameters: incubation time: 27 h, anaerobic, 37 °C
Structures can show the parent of a compound that is named as a salt.

molecule	test target	fold change of Putrescine concentration
CC1(C)[C@H](C(=O)O)N2C(=O)C[C@H]2S1(=O)=O [Sulbactam] (20 µM)	Escherichia coli IAI1	1.14
Nc1nc(Cl)nc2c1ncn2[C@H]1C[C@H](O)[C@@H](CO)O1 [Cladribine] (20 µM)	Escherichia coli IAI1	0.684
C[C@H]1C[C@H]2[C@@H]3CCC4=CC(=O)C=C[C@]4(C)[C@@]3(F)[C@@H](O)C[C@]2(C)[C@@]1(O)C(=O)CO [Betamethasone] (20 µM)	Escherichia coli IAI1	1.07
CN1CCN(CCCN2c3ccccc3Sc3ccc(S(=O)(=O)N(C)C)cc32)CC1 [Thioproperazine dimesylate] (20 µM)	Escherichia coli IAI1	0.969
Cn1nnc2c(C(N)=O)ncn2c1=O [Temozolomide] (20 µM)	Escherichia coli IAI1	1
CC[C@H]1OC(=O)[C@H](C)[C@@H](O[C@H]2C[C@@](C)(OC)[C@@H](O)[C@H](C)O2)[C@H](C)[C@@H](O[C@@H]2O[C@H](C)C[C@H](N(C)C)[C@H]2O)[C@](C)(O)C[C@@H](C)[C@@H]2N[C@@H](COCCOC)O[C@H]([C@H]2C)[C@]1(C)O [Dirithromycin] (20 µM)	Escherichia coli IAI1	0.956
N[C@@H](C(=O)N[C@@H]1C(=O)N2C(C(=O)O)=C(Cl)CS[C@H]12)c1ccccc1 [Cefaclor hydrate] (20 µM)	Escherichia coli IAI1	0.939
COc1cc(C)c(/C=C/C(C)=C/C=C/C(C)=C/C(=O)O)c(C)c1C [Acitretin] (20 µM)	Escherichia coli IAI1	1.18
Cc1c(O)c(=O)n(-c2ccccc2)n1C [Antipyrine, 4-hydroxy] (20 µM)	Escherichia coli IAI1	1.01
CCCN1CCCC[C@H]1C(=O)Nc1c(C)cccc1C [Ropivacaine hydrochloride] (20 µM)	Escherichia coli IAI1	0.946
NC[C@H]1O[C@H](O[C@H]2[C@H](O[C@@H]3O[C@H](CO)[C@@H](O)[C@H]3O)[C@@H](O)[C@H](N)C[C@@H]2N)[C@H](N)[C@@H](O)[C@@H]1O [Ribostamycin sulfate salt] (20 µM)	Escherichia coli IAI1	1.14
CNCCC=C1c2ccccc2C=Cc2ccccc21 [Norcyclobenzaprine] (20 µM)	Escherichia coli IAI1	1
CC[C@@H]([C@H](C)O)n1ncn(-c2ccc(N3CCN(c4ccc(OC[C@@H]5CO[C@@](Cn6cncn6)(c6ccc(F)cc6F)C5)cc4)CC3)cc2)c1=O [Posaconazole hydrate] (20 µM)	Escherichia coli IAI1	1.04
CC(C)(C)NC(=O)[C@@H]1C[C@@H]2CCCC[C@@H]2CN1C[C@@H](O)[C@H](Cc1ccccc1)NC(=O)[C@H](CC(N)=O)NC(=O)c1ccc2ccccc2n1 [Saquinavir mesylate] (20 µM)	Escherichia coli IAI1	1.24
CCC(C)(C)C(=O)O[C@H]1C[C@@H](C)C=C2C=C[C@H](C)[C@H](CC[C@@H]3C[C@@H](O)CC(=O)O3)[C@H]21 [Simvastatin] (20 µM)	Escherichia coli IAI1	1
CCOC(=O)C1=C(C)NC(C)=C(C(=O)OCC)C1c1ccccc1/C=C/C(=O)OC(C)(C)C [Lacidipine] (20 µM)	Escherichia coli IAI1	0.962
CN(C)CCn1nnnc1SCC1=C(C(=O)O)N2C(=O)[C@@H](NC(=O)Cc3csc(N)n3)[C@H]2SC1 [Cefotiam hydrochloride] (20 µM)	Escherichia coli IAI1	0.121
COCCCOc1cc(C[C@@H](C[C@H](N)[C@@H](O)C[C@H](C(=O)NCC(C)(C)C(N)=O)C(C)C)C(C)C)ccc1OC [Aliskiren hemifumarate] (20 µM)	Escherichia coli IAI1	1
Cc1ccc(C)c(OCCCC(C)(C)C(=O)O)c1 [Gemfibrozil] (20 µM)	Escherichia coli IAI1	0.995
C#C[C@]1(OC(C)=O)CC[C@H]2[C@@H]3CCC4=CC(=NO)CC[C@@H]4[C@H]3CC[C@@]21CC (mixture of isomers) [Norgestimate] (20 µM)	Escherichia coli IAI1	1.05
CC(C)c1nc(N(C)S(C)(=O)=O)nc(-c2ccc(F)cc2)c1/C=C/[C@@H](O)C[C@@H](O)CC(=O)O [Rosuvastatin] (20 µM)	Escherichia coli IAI1	1.06
C[N+](C)(C)CCCCCC[N+](C)(C)C [Hexamethonium dibromide dihydrate] (20 µM)	Escherichia coli IAI1	1.04
C=C(C)[C@@H]1CC=C(/C=N/O)CC1 [Perillartine] (50 µM)	Escherichia coli IAI1	0.985
CCn1cc(C(=O)O)c(=O)c2cnc(N3CCNCC3)nc21 [Pipemidic acid] (20 µM)	Escherichia coli IAI1	0.313
CN1CCC(=C2c3ccccc3C=Cc3ccccc32)CC1 [Cyproheptadine hydrochloride] (20 µM)	Escherichia coli IAI1	0.969
C[C@@H]1C[C@H]2[C@@H]3C[C@H](F)C4=CC(=O)C=C[C@]4(C)[C@@]3(Cl)[C@@H](O)C[C@]2(C)[C@H]1C(=O)COC(=O)C(C)(C)C [Clocortolone pivalate] (20 µM)	Escherichia coli IAI1	1.02

Every entry's value here was drawn from the supplement of paper PMC12494721.
